Exercise: for every item that follows, state its recorded growth inhibition.
assay: NCI Yeast Anticancer Drug Screen. Data for the rad50 strain (AID 155);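 further: 0% = growth of vehicle-only cultures of the same strain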; settings: S. cerevisiae rad50 strain growth inhibition; at 50.0 µM (retest, dose inferred, filed as 5.0); active compounds read high
The panel holds about 79,000 compounds, 15% with a hit somewhere; the sample as a whole holds those more often.
Answers are plain numbers, in %.

{"columns": ["MOLECULE", "ASSAY VALUE"],
 "data": [
  ["CCCN=Cc1cnc(C#N)c(N)n1", 4],
  ["CCOC(=O)C(CO)c1nc2c([nH]c1=O)c(=O)n(C)c(=O)n2C (stereo unspecified)", 18],
  ["CCCCCCCCCCCCCCCCNC(=S)N/C=C(/C#N)C(=O)OC", 99]
]}

Answer for every listed entry: what is its growth inhibition? The entries follow.
1. CC1=C(C(=O)Nc2ccccc2C)C(c2ccc(Cl)c(Cl)c2)C(C(=O)Nc2ccccc2C)=C(C)N1
2. CN(C)c1ccc(C2C=C(c3ccccc3)Oc3ccccc32)cc1 (stereo unspecified)
3. CCOc1ccccc1-c1nc2c(s1)C(=O)c1ccccc1C2=O

[5, 96, 98]

---

assay: NCI Yeast Anticancer Drug Screen. Data for the mec2-1 strain (AID 157); details: S. cerevisiae mec2-1 strain, at 50.0 µM, active compounds read high
This is part of a sample that, as a whole, favours compounds with a hit. Of some 79,000 tested, about 15% had one in any assay.
REPORTED METRIC: growth inhibition (%)
Answers are plain numbers, in %.

Illustrative cases are given below, each with its answer.
{"columns": ["COMPOUND", "REPORTED METRIC", "ASSAY VALUE"],
 "data": [
  ["CCN(CC)CCOc1ccc(-c2nc3cc(Cl)ccc3s2)cc1", "growth inhibition", 35.8],
  ["CCCC(=O)NC1=C(Cl)C(=O)c2ccccc2C1=O", "growth inhibition", 92.5],
  ["O=C1c2cc3c(cc2CC1Br)CCC3 (stereo not given)", "growth inhibition", 87],
  ["COc1ccc2nc3cc(Cl)ccc3c(NCCNCCCNC(=O)c3cc(-c4ccccc4)nc4ccccc34)c2c1", "growth inhibition", 93.9],
  ["CCc1cc2c([nH]c3ccccc32)c(C)c1CCN(C)C", "growth inhibition", 3.65]
]}

Answer for every listed entry: what is its growth inhibition? The entries follow.
1. CCCCCCCCCCCCCCCCOP(=O)([O-])OCC[N+](C)(C)C
2. COc1ccc(-c2cscc2N)cc1
3. COc1cc(OC)cc(C2OC3=C(Nc4ccc([N+](=O)[O-])cc4N3)C2=O)c1 (stereo not given)

99.6
87.2
59.8

Answer for every listed entry: what is its growth inhibition? The entries follow.
1. O=C(O)/C(=C/c1c(O)ccc2ccccc12)c1csc(-c2nc(/C(=C\c3c(O)ccc4ccccc34)C(=O)O)cs2)n1
2. Cc1cc2c(cc1C)[n+](=O)c(C(=O)C/C(=N/NC(=O)CC#N)C(=O)Nc1ccccc1C(F)(F)F)c(C)n2[O-]
3. NC(=O)NC(CC(=O)O)C(=O)O (stereo not given)
4. CN(C)CCCNc1ccc2c(=O)n(CCN(C)C)c(=O)n3c4ccccc4c(=O)c1c23
5. CCOc1ncc(Cl)c(OCC)n1
6. COc1ccc(NC(=O)CCC(=O)CC(=O)c2ccncc2)cc1

1: 92; 2: 91; 3: -4.35; 4: 55; 5: 35.9; 6: -8.65

Answer for every listed entry: what is its growth inhibition? The entries follow.
1. O=C1OC(CCCl)(c2ccccc2)CC1CN1CCOCC1 (stereo not given)
2. Cc1c[n+](=O)c2ccccc2n1[O-]

[57.9, -16.6]

Answer for every listed entry: what is its growth inhibition? The entries follow.
1. CC(C)(C)CC(C)(C)c1ccc(OCCSC(=N)N)cc1
2. COC1/C=C/OC2(C)Oc3c(C)c(OC(C)=O)c4c(c3C2=O)C(=O)C=C(NC(=O)/C(C)=C\C=C\C(C)C(O)C(C)C(O)C(C)C(OC(C)=O)C1C)C4=O (stereo not given)
3. COC(CCC[N+](C)(C)C)CC[N+](C)(C)C (stereo not given)
4. CN(C)CCNc1ccc(O)c2sc3ccccc3c(=O)c12
5. CC1C(c2ccc3c(c2)OCO3)c2cc3c(cc2OC1N1CCOCC1)OCO3 (stereo not given)

1: 99.6; 2: 50; 3: 97.6; 4: 42.8; 5: 7.3

Answer for every listed entry: what is its growth inhibition? The entries follow.
1. CCCCCCn1c(SCC)c2ccccc2c1-c1nc(F)nc(F)n1
2. N=C(N)c1ccc(Nc2ccc(-c3cc4ccc(C(=N)N)cc4[nH]3)cc2)cc1
3. O=C(NNS(=O)(=O)c1ccccc1)Nc1ccccc1
4. CC(C)(C)c1ccc(CN2CCN(C(c3ccccc3)c3ccc(Cl)cc3)CC2)cc1 (stereo not given)
5. CN(C)CC(CN(C)C)C(=O)c1ccc(Oc2ccccc2)cc1

92.8
98.8
5.85
1.45
99.7

Answer for every listed entry: what is its growth inhibition? The entries follow.
1. Cc1ccc(S(=O)(=O)Nc2ccccc2Cl)cc1
2. S=C(NC(=S)Nc1ccc(Cl)cc1)Nc1ccc(Cl)cc1
3. CN(C)CCC(/C=C/c1ccccc1)=N\Nc1ccc(Cl)cc1Cl
4. C=C(C)C(=O)OC1CC2=CC(CC3(C)OC3C3OC(=O)C(=C)C13)OC2=O (stereo not given)
5. COC(=O)c1ccccc1N=NN(C)CC1OC2OC(C)(C)OC2C1OC (stereo not given)

1. 77.3
2. 61.9
3. 99.5
4. 87
5. 43.2

Answer for every listed entry: what is its growth inhibition? The entries follow.
1. O=C1NOCC1N=Cc1cc(Cl)ccc1O (stereo not given)
2. CCCCCCC(C)OC(=O)/C=C/c1ccccc1 (stereo not given)
3. O=C(O)CC(CCCc1ccccc1)C(=O)O (stereo not given)
4. CC(=O)Nc1ccc(C(=O)n2[nH]c(C)c(/C=C3\C(=O)C=Cc4ccccc43)c2=O)cc1
5. O=[N+]([O-])c1cccc2nc3ccccc3c(NCCO)c12
6. Cc1nc2c(=O)[nH]c3ccc(Cl)cc3c2o1

1: 16.9; 2: 14.2; 3: 15.4; 4: 99.5; 5: 92; 6: 38.1

Answer for every listed entry: what is its growth inhibition? The entries follow.
1. CCN(CC)c1ccc(SC#N)cc1
2. Cc1cc(N/N=C/c2cccc3ccccc23)c2cc3c(cc2n1)OCO3
3. COc1ccccc1NC(=O)CC(=O)N1N=C(C)C(N=Nc2ccc(C(=O)O)cc2)C1=O (stereo not given)

1: 95.1; 2: 99; 3: -4
